Data provenance: IntAct's records for PubMed 20462492

B1: Pre-mRNA-processing factor 19 (Saccharomyces cerevisiae), P32523 (parent)
chain: MLCAISGKVPRRPVLSPKSRTIFEKSLLEQYVKDTGNDPITNEPLSIEEIVEIVPSAQQASLTESTNSATLKANYSIPNLLTSLQNEWDAIMLENFKLRSTLDSLTKKLSTVMYERDAAKLVAAQLLMEKNEDSKDLPKSSQQAVAITREEFLQGLLQSSRDFVARGKLKAPKWPILKNLELLQAQNYSRNIKTFPYKELNKSMYYDKWVCMCRCEDGALHFTQLKDSKTITTITTPNPRTGGEHPAIISRGPCNRLLLLYPGNQITILDSKTNKVLREIEVDSANEIIYMYGHNEVNTEYFIWADNRGTIGFQSYEDDSQYIVHSAKSDVEYSSGVLHKDSLLLALYSPDGILDVYNLSSPDQASSRFPVDEEAKIKEVKFADNGYWMVVECDQTVVCFDLRKDVGTLAYPTYTIPEFKTGTVTYDIDDSGKNMIAYSNESNSLTIYKFDKKTKNWTKDEESALCLQSDTADFTDMDVVCGDGGIAAILKTNDSFNIVALTP
partner: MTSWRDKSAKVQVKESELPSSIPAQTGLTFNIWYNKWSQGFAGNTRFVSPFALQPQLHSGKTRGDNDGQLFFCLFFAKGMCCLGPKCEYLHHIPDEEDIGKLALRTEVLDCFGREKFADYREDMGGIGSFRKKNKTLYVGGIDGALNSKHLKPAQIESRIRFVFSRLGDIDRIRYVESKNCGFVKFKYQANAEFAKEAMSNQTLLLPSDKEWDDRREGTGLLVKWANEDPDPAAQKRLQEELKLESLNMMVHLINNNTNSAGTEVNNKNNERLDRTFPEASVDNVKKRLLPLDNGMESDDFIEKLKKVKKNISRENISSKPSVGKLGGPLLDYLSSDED

- Variants of: B1
- test-conditions: with cwc2_yeast CWC2, Q12046
readout-kind: effect of a mutation on the interaction

Some solved entries appear below for comparison.
K404A ... decreasing interaction
R403A;K404A ... disrupting interaction
Y387A ... decreasing interaction
D341A ... decreasing interaction

Now for another entry.
Query: Using known records, supply effect of a mutation on the interaction for R403A
Response: disrupting interaction
